These data points were gathered from paper PMC8795197.

- measurementProtocol: Phase 1 dose-escalation phase: plasma pharmacokinetics
- Type: in vivo, human
- testContext: human, plasma, oral, 300 mg, single dose 300 mg (n = 3), mean (SD); read-out: AUC0-t
propertyMeasured: AUC(0-t) (ng·h/mL)
Response body: numeric value in ng·h/mL, unit text excluded.

Documented AUC(0-t) of COc1cc(N2CCC3(CCN(C)CC3)CC2)ccc1Nc1ncc(Cl)c(Nc2ccccc2P(C)(C)=O)n1 : 14900

====

- measurementProtocol: Phase 1 dose-escalation phase: plasma pharmacokinetics
- Assay type: in vivo, human
- testContext: human, plasma, oral, 30 mg, multiple dosing 30 mg (n = 3), mean (SD)
propertyMeasured: Tmax (h)
Response body: numeric value in h, unit text excluded.

Documented Tmax of COc1cc(N2CCC3(CCN(C)CC3)CC2)ccc1Nc1ncc(Cl)c(Nc2ccccc2P(C)(C)=O)n1 [WX-0593] : 4.33

====

- assaySystem: hERG currents (Homo sapiens, UniProt Q12809)
- Sequence (Q12809 whole entry): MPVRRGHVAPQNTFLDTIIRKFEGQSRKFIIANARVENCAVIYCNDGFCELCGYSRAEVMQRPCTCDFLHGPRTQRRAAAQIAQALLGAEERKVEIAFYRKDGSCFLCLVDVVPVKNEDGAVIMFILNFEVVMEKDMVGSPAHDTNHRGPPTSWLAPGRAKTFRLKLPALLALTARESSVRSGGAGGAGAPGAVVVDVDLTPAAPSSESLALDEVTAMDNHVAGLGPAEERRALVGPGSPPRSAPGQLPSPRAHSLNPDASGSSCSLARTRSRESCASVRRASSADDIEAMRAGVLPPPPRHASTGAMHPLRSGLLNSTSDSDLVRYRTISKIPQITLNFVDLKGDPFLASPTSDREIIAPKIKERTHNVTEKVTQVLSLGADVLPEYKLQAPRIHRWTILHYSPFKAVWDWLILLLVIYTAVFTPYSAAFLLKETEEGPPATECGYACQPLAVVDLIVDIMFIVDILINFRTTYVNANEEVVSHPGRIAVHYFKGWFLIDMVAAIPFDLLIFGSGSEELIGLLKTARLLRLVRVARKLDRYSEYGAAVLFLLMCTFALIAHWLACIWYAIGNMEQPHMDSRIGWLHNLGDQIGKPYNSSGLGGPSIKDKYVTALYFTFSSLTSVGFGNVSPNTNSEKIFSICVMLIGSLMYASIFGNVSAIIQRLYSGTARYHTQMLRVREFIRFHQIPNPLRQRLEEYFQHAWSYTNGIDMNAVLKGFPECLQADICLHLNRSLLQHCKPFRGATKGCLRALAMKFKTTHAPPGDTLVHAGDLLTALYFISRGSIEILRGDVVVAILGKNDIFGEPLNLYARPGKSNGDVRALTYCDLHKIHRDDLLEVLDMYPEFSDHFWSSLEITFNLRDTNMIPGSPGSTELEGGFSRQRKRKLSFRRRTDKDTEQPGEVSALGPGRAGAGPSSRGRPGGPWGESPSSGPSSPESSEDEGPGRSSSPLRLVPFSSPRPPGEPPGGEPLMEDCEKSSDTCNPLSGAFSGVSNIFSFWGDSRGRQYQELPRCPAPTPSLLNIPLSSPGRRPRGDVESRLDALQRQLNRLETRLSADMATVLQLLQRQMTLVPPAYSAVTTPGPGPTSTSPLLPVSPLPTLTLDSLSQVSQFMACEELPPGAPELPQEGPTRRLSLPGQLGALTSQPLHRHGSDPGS
- measurementProtocol: Inhibition of hERG currents
- Description: […]. Therefore, WX-0593 has a low risk of cardiotoxicity. There were no effects on the CNS and respiratory system in rats at doses of 3, 10, and 30 mg/kg. However, WX-0593 10 and 30 mg/kg may result in benign respiratory rate and decreases in minute ventilation in female rats. […]
propertyMeasured: IC50 (µM)
Response body: numeric value in µM, unit text excluded.

Documented IC50 of COc1cc(N2CCC3(CCN(C)CC3)CC2)ccc1Nc1ncc(Cl)c(Nc2ccccc2P(C)(C)=O)n1 [WX-0593] : 20

====

- measurementProtocol: Phase 1 dose-escalation phase: plasma pharmacokinetics
- Format: in vivo, human
- testContext: human, plasma, oral, 180 mg, multiple dosing 180 mg (n = 13), mean (SD); read-out: AUC0–24
propertyMeasured: AUC(0-t) (ng·h/mL)
Response body: numeric value in ng·h/mL, unit text excluded.

Documented AUC(0-t) of COc1cc(N2CCC3(CCN(C)CC3)CC2)ccc1Nc1ncc(Cl)c(Nc2ccccc2P(C)(C)=O)n1 [WX-0593] : 7210

====

- measurementProtocol: Metabolic stability in liver microsomes
- Format: in vitro ADME
- testContext: human liver microsomes
propertyMeasured: CLint scaled

Documented CLint scaled of COc1cc(N2CCC3(CCN(C)CC3)CC2)ccc1Nc1ncc(Cl)c(Nc2ccccc2P(C)(C)=O)n1 [WX-0593] : < 9.5 mL/min/kg

====

- measurementProtocol: Reproductive toxicity study
- testContext: rat, in vivo; read-out: NOAEL of fertility and early embryo developmental toxicity
propertyMeasured: NOAEL (mg/kg)
Response body: numeric value in mg/kg, unit text excluded.

Documented NOAEL of COc1cc(N2CCC3(CCN(C)CC3)CC2)ccc1Nc1ncc(Cl)c(Nc2ccccc2P(C)(C)=O)n1 : 10

====

Here, each record is paired with measured IC50 data.
- Tested on: Ba/F3 ALK-G1269A
- measurementProtocol: Growth of transfected Ba/F3 cells (CellTiter-Glo, 3 days)
- Type: cell-based
- testContext: Mus musculus, BaF3
Response body: numeric value in nM, unit text excluded.

INSERT INTO assay_data (molsmiles, reportedresult) VALUES
  ('COc1cc(N2CCC(N3CCN(C)CC3)CC2)ccc1Nc1ncc(Cl)c(Nc2ccccc2P(C)(C)=O)n1', 31);

Now consider a different compound.
Observed IC50 on Ba/F3 ALK-G1269A, entry C[C@H]1Oc2cc(cnc2N)-c2c(nn(C)c2C#N)CN(C)C(=O)c2ccc(F)cc21 , equals 35

====

- measurementProtocol: Phase 1 dose-escalation phase: plasma pharmacokinetics
- Assay type: in vivo, human
- testContext: human, plasma, oral, 60 mg, single dose 60 mg (n = 3), mean (SD); read-out: AUC0-t
propertyMeasured: AUC(0-t) (ng·h/mL)
Response body: numeric value in ng·h/mL, unit text excluded.

Documented AUC(0-t) of COc1cc(N2CCC3(CCN(C)CC3)CC2)ccc1Nc1ncc(Cl)c(Nc2ccccc2P(C)(C)=O)n1 : 3650

====

- Test system: Ba/F3 ALK-F1174C
- measurementProtocol: Growth of transfected Ba/F3 cells (CellTiter-Glo, 3 days)
- Assay type: cell-based
- testContext: Mus musculus, BaF3, ALK-F1174C, first listing (r10); read-out: IC50
Here, each record is paired with measured pIC50 data.
// scale note: pIC50 = -log10(conc_M); give the bare number

INSERT INTO results (compound, propertymeasured, reportedresult) VALUES
  ('Cc1cc(Nc2ncc(Cl)c(Nc3ccccc3S(=O)(=O)C(C)C)n2)c(OC(C)C)cc1C1CCNCC1 [Ceritinib]', 'pIC50', 7.02),
  ('C[C@@H]1CN(C(=O)c2ccc(NC(=O)c3cc(O[C@H](C)c4c(Cl)ccc(F)c4Cl)c(N)nn3)cc2)C[C@H](C)N1 [Ensartinib]', 'pIC50', 7.21);

Now consider a different compound.
Documented pIC50 of COc1cc(N2CCC3(CCN(C)CC3)CC2)ccc1Nc1ncc(Cl)c(Nc2ccccc2P(C)(C)=O)n1 [WX-0593] : 7.44

====

- measurementProtocol: Phase 1 dose-escalation phase: plasma pharmacokinetics
- Type: in vivo, human
- testContext: human, plasma, oral; single dose 240 mg (n = 10), mean (SD); read-out: T1/2z (converted)
propertyMeasured: half-life (h)
Response body: numeric value in h, unit text excluded.

Documented half-life of COc1cc(N2CCC3(CCN(C)CC3)CC2)ccc1Nc1ncc(Cl)c(Nc2ccccc2P(C)(C)=O)n1 : 22.9

====

- System: Ba/F3 ALK-L1152R
- measurementProtocol: Growth of transfected Ba/F3 cells (CellTiter-Glo, 3 days)
- Assay type: cell-based
- testContext: Mus musculus, BaF3
propertyMeasured: IC50
# answer = value followed by unit

INSERT INTO results (molsmiles, reportedresult) VALUES
  ('COc1cc(N2CCC(N3CCN(C)CC3)CC2)ccc1Nc1ncc(Cl)c(Nc2ccccc2P(C)(C)=O)n1', '10.4 nM');

Now consider a different compound.
Observed IC50 on Ba/F3 ALK-L1152R, entry C[C@H]1Oc2cc(cnc2N)-c2c(nn(C)c2C#N)CN(C)C(=O)c2ccc(F)cc21 , equals 17.4 nM

====

- measurementProtocol: Phase 1 dose-escalation phase: plasma pharmacokinetics
- Assay type: in vivo, human
- testContext: human, plasma, oral; single dose 90 mg (n = 8), mean (SD)
propertyMeasured: AUC(0-inf) (ng·h/mL)
Response body: numeric value in ng·h/mL, unit text excluded.

Documented AUC(0-inf) of COc1cc(N2CCC3(CCN(C)CC3)CC2)ccc1Nc1ncc(Cl)c(Nc2ccccc2P(C)(C)=O)n1 : 6210

====

- measurementProtocol: Phase 1 dose-escalation phase: plasma pharmacokinetics
- Format: in vivo, human
- testContext: human, plasma, oral; single dose 180 mg (n = 12), mean (SD)
propertyMeasured: AUC(0-inf) (ng·h/mL)
Response body: numeric value in ng·h/mL, unit text excluded.

Documented AUC(0-inf) of COc1cc(N2CCC3(CCN(C)CC3)CC2)ccc1Nc1ncc(Cl)c(Nc2ccccc2P(C)(C)=O)n1 : 7320

====

- measurementProtocol: Metabolic stability in liver microsomes
- Assay type: in vitro ADME
- testContext: cynomolgus monkey; cynomolgus monkeys liver microsomes; read-out: elimination half-life
propertyMeasured: half-life

Documented half-life of COc1cc(N2CCC3(CCN(C)CC3)CC2)ccc1Nc1ncc(Cl)c(Nc2ccccc2P(C)(C)=O)n1 : > 2.42 h

====

- measurementProtocol: Phase 1 dose-escalation phase: plasma pharmacokinetics
- Assay type: in vivo, human
- testContext: human, plasma, oral, 60 mg, single dose 60 mg (n = 3), mean (SD)
propertyMeasured: Tmax
# answer = value followed by unit

Documented Tmax of COc1cc(N2CCC3(CCN(C)CC3)CC2)ccc1Nc1ncc(Cl)c(Nc2ccccc2P(C)(C)=O)n1 : 1.33 h

====

- measurementProtocol: Phase 1 dose-escalation phase: plasma pharmacokinetics
- Type: in vivo, human
- testContext: human, plasma, oral, 180 mg, single dose 180 mg (n = 12), mean (SD); read-out: AUC0-t
propertyMeasured: AUC(0-t)

Documented AUC(0-t) of COc1cc(N2CCC3(CCN(C)CC3)CC2)ccc1Nc1ncc(Cl)c(Nc2ccccc2P(C)(C)=O)n1 : 6620 ng·h/mL

====

- measurementProtocol: Phase 1 dose-escalation phase: plasma pharmacokinetics
- Format: in vivo, human
- testContext: human, plasma, oral, 240 mg, multiple dosing 240 mg (n = 12), mean (SD)
propertyMeasured: Tmax (h)
Response body: numeric value in h, unit text excluded.

Documented Tmax of COc1cc(N2CCC3(CCN(C)CC3)CC2)ccc1Nc1ncc(Cl)c(Nc2ccccc2P(C)(C)=O)n1 [WX-0593] : 3.27

====

- measurementProtocol: Phase 1 dose-escalation phase: plasma pharmacokinetics
- Type: in vivo, human
- testContext: human, plasma, oral, 30 mg, single dose 30 mg (n = 3), mean (SD)
propertyMeasured: Tmax
# answer = value followed by unit

Documented Tmax of COc1cc(N2CCC3(CCN(C)CC3)CC2)ccc1Nc1ncc(Cl)c(Nc2ccccc2P(C)(C)=O)n1 : 2.32 h
